target: Sigma non-opioid intracellular receptor 1 (Cavia porcellus); assay: Affinity for sigma receptor type 1 of guinea pig using [3H]ifenprodil or (+)-[3H]pentazocine radioligand
Recorded Ki for the following compounds
Report as a plain number; the unit nM is understood.

Below, each entry is followed by its recorded Ki result.
- compound: "NC(=Nc1nc(-c2cc3ccccc3[nH]2)cs1)NCc1ccccc1"
  system-under-test: "Sigma non-opioid intracellular receptor 1 (Cavia porcellus)"
  Ki [nM]: 26700
- compound: "CN(c1nc2ccccc2s1)C1CCN(CCCCOc2ccccc2)C1 (stereo not drawn)"
  system-under-test: "Sigma non-opioid intracellular receptor 1 (Cavia porcellus)"
  Ki [nM]: 1.3
- compound: "CCCCCCCCCCCCC(C#N)(CCCN(C)CCc1ccccc1)c1ccccc1 (stereo not drawn)"
  system-under-test: "Sigma non-opioid intracellular receptor 1 (Cavia porcellus)"
  Ki [nM]: 1
- compound: "O=C(O)c1ccc(CCN2CCN(C/C=C/c3ccc(Cl)cc3)CC2)cc1"
  system-under-test: "Sigma non-opioid intracellular receptor 1 (Cavia porcellus)"
  Ki [nM]: 680
- compound: "CC[C@H]1CC2C[C@H]3C4Nc5ccc(OC)cc5C4CCN(C2)C13 (stereo partly drawn)"
  system-under-test: "Sigma non-opioid intracellular receptor 1 (Cavia porcellus)"
  Ki [nM]: 8550
- compound: "C[C@H]1CCC2[C@@H](C)[C@H]3[C@H](C[C@H]4[C@@H]5CC=C6C[C@@H](O)CC[C@]6(C)[C@H]5CC[C@]34C)N2C1 (stereo partly drawn)"
  system-under-test: "Sigma non-opioid intracellular receptor 1 (Cavia porcellus)"
  Ki [nM]: 74

As a next step, examine the compound that follows.
Look up and state reported Ki for CCCCCCCOc1ccccc1NC(=O)OC(C)CN(CC)CC (stereo not drawn)
230
